Assay: Potentiometric (pH-metric) LogP and logD profile
Assay type: physicochemical
Conditions: octanol/water, 25.0±0.2° C.; read-out: LogP (Potentiometric), cationic species
metric: logP
# print the numeric value only

The compound listed as COCCOc1cccc([C@@H]2CCN(CCn3cccc3)[C@H](C)[C@H]2COc2ccc3c(c2)C(=O)NC3)c1 [crystalline Form I] shows logP equal to 0.6

###

Assay: Potentiometric (pH-metric) LogP and logD profile
Type: physicochemical
Settings: octanol/water; pH 4.000
metric: logD
Write the number on its own, no unit after it.

Kindly note the recorded logD for COCCOc1cccc([C@@H]2CCN(CCn3cccc3)[C@H](C)[C@H]2COc2ccc3c(c2)C(=O)NC3)c1 [crystalline Form I] , which is 0.71

###

Assay: Approximate solubility by solvent addition technique
Assay type: physicochemical
Conditions: heptane, 20 °C, organic solvent or mixture, thermodynamic from solid, heating to 40° C. between solvent aliquots
Experimental: The approximate solubility values of the amorphous free base in the selected solvent systems (see Table 1) was estimated by the solvent addition technique. […] The approximate solubility values of the amorphous free base in a range of different solvent systems was determined at ambient temperature, with heating to 40° C. between solvent aliquots. […] The residual tBME could not be quantified, due to overlapping signals with the API. […]
metric: solubility

Documented solubility of COCCOc1cccc([C@@H]2CCN(CCn3cccc3)[C@H](C)[C@H]2COc2ccc3c(c2)C(=O)NC3)c1 [free base] : ≤ 10 mg/mL

###

Experiment: Potentiometric (pH-metric) LogP and logD profile
Type: physicochemical
Settings: octanol/water; pH 7.000
Experimental: Crystalline forms of the compound of Formula I, including the crystalline Form I, were analyzed using pKa and LogP. […] 0.79 mg of sample was weighed into a 5 mL glass assay vial and titrated in a pH-metric triple titration in the presence of octanol from pH 2.0-12.0 at concentrations of 1.5-0.5 mM. […] LogP was determined by comparing the pKa in water with the apparent pKa in the presence of octanol. […]
metric: logD
Lab note: write the figure by itself, no unit.

Just so you know, measured logD for COCCOc1cccc([C@@H]2CCN(CCn3cccc3)[C@H](C)[C@H]2COc2ccc3c(c2)C(=O)NC3)c1 [crystalline Form I] came out at 3

###

Assay: Approximate solubility by solvent addition technique
Format: physicochemical
Details: DMSO, 20 °C, organic solvent or mixture, thermodynamic from solid, heating to 40° C. between solvent aliquots
metric: solubility

Sure, the documented solubility for COCCOc1cccc([C@@H]2CCN(CCn3cccc3)[C@H](C)[C@H]2COc2ccc3c(c2)C(=O)NC3)c1 [free base] is > 200 mg/mL

###

Assay: Approximate solubility by solvent addition technique
Format: physicochemical
Settings: toluene, 20 °C, organic solvent or mixture, thermodynamic from solid, heating to 40° C. between solvent aliquots
metric: solubility

solubility recorded for this compound, COCCOc1cccc([C@@H]2CCN(CCn3cccc3)[C@H](C)[C@H]2COc2ccc3c(c2)C(=O)NC3)c1 [free base] , is > 200 mg/mL

###

Assay: Potentiometric (pH-metric) LogP and logD profile
Type: physicochemical
Settings: octanol/water; pH 6.000
metric: logD
Response field accepts a number only; no unit should be typed.

// COCCOc1cccc([C@@H]2CCN(CCn3cccc3)[C@H](C)[C@H]2COc2ccc3c(c2)C(=O)NC3)c1 [crystalline Form I] : logD value = 2.08

Hello, the source for this data is patent US12679825B2, in case you need it.
